reported.metric: melting point (°C)

compound: CCCCCC(O)CC (racemic)
melting point / °C: -16

1 = CCOC(=O)C=Cc1cc(C=CC(=O)OCC)c([N+](=O)[O-])cc1[N+](=O)[O-]
2 = CCCCCOC(=O)CCCCC
3 = CC(O)C1CCC2C3CCC4CC(O)CCC4(C)C3CCC12C (stereo unspecified)
4 = Brc1ccc2ncccc2c1
5 = CC1=C(c2ccccc2)Cc2ccccc21
Descending sort on melting point required. Quick reminder: the answer is the labels in the order asked. 3, 1, 5, 4, 2

a = NC(CS(=O)(=O)c1ccccc1)=NO
b = O=C(Nc1ccccc1)Nc1ccccc1
Param metric = melting point; output whichever of a , b has the minimum value. Answer format: the label of the selected item. a

1 = Cc1ccc2c(Cl)cc(Cl)c(O)c2n1
2 = CCC1C(=O)OCC1Cc1cncn1C (stereo unspecified)
3 = Nc1ccc(C(F)(F)F)cc1I
Falling order of melting point, please. I'd appreciate it if you listed the labels in the requested order. 1, 3, 2
(1: 114 °C, 3: 51 °C, 2: 34 °C)

I = OCCc1ccccc1
II = N#C/C(=N/Nc1cccc(C(F)(F)F)c1)C(=O)c1cccs1
III = Nc1ccc2c(c1N)C(=O)c1ccccc1C2=O
Order by melting point, ascending. Use the labels to give the ranking in the order requested. I, II, III

P = Nc1c2c(nc3ccccc13)CCCC2
Q = O=Cc1ccccc1Cn1cncn1
// select label with min value of measured melting point from [ P , Q ] Answer by stating the label of the chosen item. Q
(Q: 59 °C, P: 184 °C)

P = O=C(O)COc1ccc(Cl)cc1CO
Q = COc1ccc(C=C(C(=O)O)C(=Cc2ccc(OC)cc2)C(=O)O)cc1
R = COc1cc(N=C=S)cc(OC)c1OC
Rank items: key melting point, increasing. Please reply with the labels ordered as requested. Many thanks. R, P, Q

a = CC(C)(C)c1cc(O)ccc1O
b = FC(F)(F)c1nn2c(=S)nc(-c3ccccc3)nc2s1
When their melting point values are compared, which is larger, a or b ? Which one? Tell me its label. b

src = a melting point compilation (Tetko et al.)
